- Test system: Plasmodium berghei
- TEST_SUMMARY: Screen against P. berghei liver stage (PbLuc), transformed with Luciferase, at 10uM
- Assay type: functional, HepG2
- SETUP_CONDITIONS: tested at 10 uM
Among all 69,000 compounds or so, about 8,600 (12%) showed an effect of 50% or more. Only a selection was taken, and strong results are over-represented in it overall.
Label yes (1) for high-side INHIBITION (at or above 20%) and no (0) for low-side INHIBITION (below it).

Worked set:
>>> class("CC(C)Nc1nc(O)cc(C2CC(=O)N(C3CCCCC3)C2)n1 (stereo not drawn)")
"no (0)"
>>> class("O=C1CC(N(C(=O)c2ccc(F)c(F)c2)C2CC2)C(=O)N1 (stereo not drawn)")
"no (0)"
>>> class("Cc1nc(-c2ccsc2)ccc1C(=O)N(C)CC(F)(F)F")
"no (0)"
>>> class("CC1(C)CN(C(=O)c2occc2COc2cccc(C#N)c2)CCO1")
"no (0)"
>>> class("COCc1nc(C(=O)N2CCCC(n3ccnc3)C2)cs1 (stereo not drawn)")
"yes (1)"
>>> class("CCOc1ccc(NC(C)c2nnnn2-c2ccccc2)cc1CO (stereo not drawn)")
"yes (1)"
>>> class("CNC(=O)c1cccc(CNC(C)c2cc(Cl)ccc2OC)c1 (stereo not drawn)")
"no (0)"
>>> class("CC(=O)N1CCN(Cc2cccs2)CC2(CC(=O)N(C)C2)C1 (stereo not drawn)")
"no (0)"

Prompt line: Does CC(Nc1ccc(F)cc1)c1nnnn1-c1ccccc1 (stereo not drawn) have a reported INHIBITION of at least 20%?
Response line: yes (1)

Prompt line: Does Cc1ccc(C(=O)N(C2CC2)C2CC(=O)NC2=O)cc1F (stereo not drawn) have a reported INHIBITION of at least 20%?
Response line: yes (1)

Prompt line: Does COc1cccc(S(=O)(=O)CCNC2CCc3ncnn3C2)c1 (stereo not drawn) have a reported INHIBITION of at least 20%?
Response line: yes (1)

Prompt line: Does Cc1ccccc1C(=O)N1CCC2(CC1)CC(c1cnn(C)c1)CO2 (stereo not drawn) have a reported INHIBITION of at least 20%?
Response line: yes (1)

Prompt line: Does COC(=O)c1cc(C(=O)N2CCCCC2C)n(-c2ccccc2)n1 (stereo not drawn) have a reported INHIBITION of at least 20%?
Response line: no (0)
